meta.source: patent US7659404B2

Test system: virus strain S (R13080)
Measurement Notes: microbe, parasite or virus in culture
Format: cell-based, HIV
Experimental Setup: virus strain S (R13080), MT4 cells, MTT
Would you kindly list HIV-AVE-MT4-MTT-R13080-2-002 pEC50 for each of these compounds?
Numbers only.

These solved cases illustrate the format of a correct answer.
>>> numeric_readout("CC(C)CN(C[C@@H](O)[C@H](Cc1ccccc1)NC(=O)OCc1cncs1)S(=O)(=O)c1ccc2nc(N(C)C(=O)CN3CCOCC3)sc2c1")
6.18
>>> numeric_readout("CC(C)CN(C[C@@H](O)[C@H](Cc1ccccc1)NC(=O)OCc1cncs1)S(=O)(=O)c1ccc2nc(NC(=O)CN3CCNCC3)sc2c1 [Compound 157]")
6.85
>>> numeric_readout("CC(C)CN(C[C@@H](O)[C@H](Cc1ccccc1)NC(=O)OCc1cncs1)S(=O)(=O)c1ccc2nc(NC(=O)CN3CCN(C)CC3)sc2c1")
7.46

Provide HIV-AVE-MT4-MTT-R13080-2-002 pEC50 values for the following items, in order.
1. CC(C)CN(C[C@@H](O)[C@H](Cc1ccccc1)NC(=O)OCc1cncs1)S(=O)(=O)c1ccc2nc(NC(=O)CN3CCNCC3)sc2c1 [Compound 155]
2. CC(C)CN(C[C@@H](O)[C@H](Cc1ccccc1)NC(=O)OCc1cncs1)S(=O)(=O)c1ccc2nc(N(C)C(=O)CN3CCN(C)CC3)sc2c1
3. CC(C)CN(C[C@@H](O)[C@H](Cc1ccccc1)NC(=O)OCc1cncs1)S(=O)(=O)c1ccc2nc(N(C)C(=O)CN(C)C)sc2c1
4. CC(C)CN(C[C@@H](O)[C@H](Cc1ccccc1)NC(=O)O[C@H]1CO[C@H]2OCC[C@H]21)S(=O)(=O)c1ccc2nc(N(C)CCCN(C)C)sc2c1
5. CC(C)CN(C[C@@H](O)[C@H](Cc1ccccc1)NC(=O)OCc1cncs1)S(=O)(=O)c1ccc2nc(N(C)C(=O)CN(C)CCCN3CCCC3)sc2c1

7.49
6.81
6.65
6.02
5.5

---

Test system: HIV-1 strain LAI
Measurement Notes: Cellular anti-HIV assay in MT4 cells (MTT), wild type laboratory strain
Format: cell-based
Experimental Setup: Human immunodeficiency virus 1, MT4, 120 h, read-out: EC50 value against HIV-1 strain LAI
Measure: EC50

>>> result("CC(=O)N(C)c1nc2ccc(S(=O)(=O)N(Cc3ccccn3)CC(O)C(Cc3ccccc3)NC(=O)OCc3c(C)cccc3C)cc2s1 (stereo not drawn)")
"> 500 nM"

Provide EC50 values for the following items, in order.
1. CC(C)CN(C[C@@H](O)[C@H](Cc1ccccc1)NC(=O)O[C@H]1CO[C@H]2OCC[C@H]21)S(=O)(=O)c1ccc2nc(NCCN3CCCC3)sc2c1
2. CC(=O)Nc1nc2ccc(S(=O)(=O)N(CCNc3ccccn3)CC(O)C(Cc3ccccc3)NC(=O)OC3COC4OCCC34)cc2s1 (stereo not drawn)

1: 50 to 500 nM; 2: 50 to 500 nM

---

System: clinically isolated HIV strain H
Assay type: cell-based
Experimental Setup: FR=EC50(mutant strain)/EC50(HIV-1 strain LAI)
Measure: fold resistance (FR), strain H
Answers are plain numbers.

These solved cases illustrate the format of a correct answer.
>>> numeric_readout("CC(=O)N(CCN1CCCC1)c1nc2ccc(S(=O)(=O)N(CC(C)C)C[C@@H](O)[C@H](Cc3ccccc3)NC(=O)OCc3cccnc3)cc2s1")
2.7
>>> numeric_readout("CC(C)CN(C[C@@H](O)[C@H](Cc1ccccc1)NC(=O)OCc1cccnc1)S(=O)(=O)c1ccc2nc(NCCN3CCCC3)sc2c1")
2.3

Okay, now this molecule:
fold resistance (FR), strain H for `CC(=O)N(C)c1nc2ccc(S(=O)(=O)N(CC(C)C)C[C@@H](O)[C@H](Cc3ccccc3)NC(=O)O[C@H]3CCOC3)cc2s1` ? 12.1
